- Tgt: His-tagged human cyclophilin-A (His-CypA) (Homo sapiens, UniProt P62937)
- Construct: gene PPIA; full length M1-E165, codon-optimised, E. coli C41
- Sequence (P62937 whole entry): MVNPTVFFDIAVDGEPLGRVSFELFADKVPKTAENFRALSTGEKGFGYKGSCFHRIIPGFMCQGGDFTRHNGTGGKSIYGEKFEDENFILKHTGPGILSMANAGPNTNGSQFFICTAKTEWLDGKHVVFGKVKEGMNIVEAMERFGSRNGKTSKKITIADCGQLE
- Measurement Description: SPR (Biacore T200), […] Langmuir fit, captured and stabilised His-CypA
- Assay type: binding
Endpoint Name: Kd (µM)
State just the number; it will be interpreted in µM.

(Q) Fill in: Kd of `Nc1cccnc1N` is ___
(A) 248

The origin of these recorded values is paper PMC5377415.
